Target: NMDAR2D (Homo sapiens)
Construct: expressed in transfected cells; host or cells: HEK cells (membrane extract)
Sequence (O15399 28-1336, species assumed, other chains not shown): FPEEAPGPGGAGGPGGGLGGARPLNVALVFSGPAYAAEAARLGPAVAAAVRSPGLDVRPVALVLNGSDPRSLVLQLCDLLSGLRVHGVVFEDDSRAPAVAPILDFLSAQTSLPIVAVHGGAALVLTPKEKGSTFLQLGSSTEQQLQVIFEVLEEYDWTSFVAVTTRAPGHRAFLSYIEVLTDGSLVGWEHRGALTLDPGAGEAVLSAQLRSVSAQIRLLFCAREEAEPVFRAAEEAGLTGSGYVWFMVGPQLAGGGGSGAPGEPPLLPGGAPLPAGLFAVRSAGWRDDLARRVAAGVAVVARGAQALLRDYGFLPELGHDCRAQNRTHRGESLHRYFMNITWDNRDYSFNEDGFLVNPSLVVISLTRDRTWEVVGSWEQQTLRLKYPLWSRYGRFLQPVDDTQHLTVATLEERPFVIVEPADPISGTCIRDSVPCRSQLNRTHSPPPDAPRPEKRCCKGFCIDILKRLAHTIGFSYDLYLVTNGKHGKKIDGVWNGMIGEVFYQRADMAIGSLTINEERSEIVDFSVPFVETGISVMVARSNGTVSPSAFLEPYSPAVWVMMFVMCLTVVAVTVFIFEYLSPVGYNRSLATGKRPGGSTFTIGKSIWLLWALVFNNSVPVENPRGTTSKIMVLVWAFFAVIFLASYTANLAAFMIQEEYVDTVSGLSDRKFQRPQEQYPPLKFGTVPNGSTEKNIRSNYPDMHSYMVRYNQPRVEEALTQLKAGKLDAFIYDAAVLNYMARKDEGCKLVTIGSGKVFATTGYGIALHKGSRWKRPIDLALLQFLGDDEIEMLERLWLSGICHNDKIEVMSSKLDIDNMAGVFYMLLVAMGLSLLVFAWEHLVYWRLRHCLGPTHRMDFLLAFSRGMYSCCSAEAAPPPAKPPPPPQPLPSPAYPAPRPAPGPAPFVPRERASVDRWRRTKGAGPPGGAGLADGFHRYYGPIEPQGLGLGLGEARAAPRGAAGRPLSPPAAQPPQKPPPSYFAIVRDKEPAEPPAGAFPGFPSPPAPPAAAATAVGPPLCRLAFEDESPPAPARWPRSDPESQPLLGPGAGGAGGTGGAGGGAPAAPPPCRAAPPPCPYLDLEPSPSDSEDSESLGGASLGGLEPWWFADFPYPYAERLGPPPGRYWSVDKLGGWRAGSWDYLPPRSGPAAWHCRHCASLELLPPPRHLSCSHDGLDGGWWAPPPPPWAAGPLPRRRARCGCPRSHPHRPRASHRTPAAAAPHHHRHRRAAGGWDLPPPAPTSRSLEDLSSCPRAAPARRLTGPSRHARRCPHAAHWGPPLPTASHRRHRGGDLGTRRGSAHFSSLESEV
Assay: [3H]MK-801 binding, NMDAR2D expressing HEK cell membranes
Format: biochemical
Settings: 50 μM glutamate
endpoint_label: NMDAR2D A: % maximal [3H]MK-801 binding relative to 1 mM glycine

As a guide, the following entries are already answered.
CN1CCNC2(CNC2=O)C1 (centres unmarked) [EH-1]
+ (<100%=+)
CN1CCNC2(CNC2=O)C1 (centres unmarked) [EH-2]
− (−=0)
CN1CCN(Cc2ccccc2)C2(CNC2=O)C1 (single isomer, unassigned) [EG-2]
+ (<100%=+)
O=C1NCC12CNCCN2Cc1ccccc1 (single isomer, unassigned)
+ (<100%=+)
CN1CCN(Cc2ccccc2)C2(CNC2=O)C1 (single isomer, unassigned) [EG-1]
− (−=0)
CC(C)(C)OC(=O)N1CCN(C(=O)OC(C)(C)C)C2(CNC2=O)C1 (single isomer, unassigned)
− (−=0)

Turning now to a further compound:
# lookup: CC(C)(C)OC(=O)N1CCNC2(CNC2=O)C1 (single isomer, unassigned) on NMDAR2D (Homo sapiens), NMDAR2D A: % maximal [3H]MK-801 binding relative to 1 mM glycine = + (<100%=+)
